Tested on: Staphylococcus aureus
Method Description: microbe, parasite or virus in culture
Format: cell-based
Test Settings: Staphylococcus aureus, S. aureus KU2240, mutant type Wild (wild strain)
Catalogue of MIC readings, one per entry.
Write the quantity with the unit trailing the number.

[[record]]
compound = "N[C@@H]1[C@H]2CN(c3nc4c(cc3F)c(=O)c(C(=O)O)cn4-c3ccc(F)cc3F)C[C@@H]12 [Trovafloxacin, trovafloxacin]"
result = "0.063 µg/mL"

[[record]]
compound = "CO/N=C1\\CN(c2nc3c(cc2F)c(=O)c(C(=O)O)cn3C2CC2)CC1CN (racemic) [Gemifloxacin]"
result = "0.031 µg/mL"

[[record]]
compound = "C[C@H]1COc2c(N3CCN(C)CC3)c(F)cc3c(=O)c(C(=O)O)cn1c23 [Levofloxacin, levofloxacin]"
result = "0.25 µg/mL"


[in] So what MIC did C[C@@H]1CN(c2c(F)c(N)c3c(=O)c(C(=O)O)cn(C4CC4)c3c2F)C[C@H](C)N1 [Sparfloxacin, sparfloxacin] get with Staphylococcus aureus?
[out] 0.25 µg/mL

[in] Requested read-out MIC, target or system Staphylococcus aureus, entry NC1CCN(c2nc3c(cc2F)c(=O)c(C(=O)O)cn3-c2ccc(F)cc2F)C1 (centres unmarked) [Tosufloxacin, tosufloxacin]
[out] 0.063 µg/mL

====

Readings of MIC Range for the listed compounds
Test system: Staphylococcus aureus
Method Description: MIC by NCCLS broth microdilution, 1100 Japanese clinical isolates 1997-1998
Assay type: cell-based
Test Settings: Staphylococcus aureus oxacillin susceptible (n=41)

[in] # input compound: NC1CCN(c2nc3c(cc2F)c(=O)c(C(=O)O)cn3-c2ccc(F)cc2F)C1 (centres unmarked) ; wanted: its MIC Range
[out] 0.016 to 1 µg/mL

====

System: Moraxella catarrhalis
Method Description: MIC by NCCLS reference broth microdilution, 450 respiratory tract pathogens
Type: cell-based
Test Settings: β-lactamase negative (n = 13)
Measured MIC by item

[[record]]
molecule = "N[C@@H]1[C@H]2CN(c3nc4c(cc3F)c(=O)c(C(=O)O)cn4-c3ccc(F)cc3F)C[C@@H]12"
result = "3.75 to 60 ng/mL"

[[record]]
molecule = "C[C@H]1COc2c(N3CCN(C)CC3)c(F)cc3c(=O)c(C(=O)O)cn1c23"
result = "3.75 to 30 ng/mL"

[[record]]
molecule = "C[C@@H]1CN(c2c(F)c(N)c3c(=O)c(C(=O)O)cn(C4CC4)c3c2F)C[C@H](C)N1"
result = "3.75 to 60 ng/mL"


[in] Checklist item: MIC tested on Moraxella catarrhalis, entry O=C(O)c1cn(C2CC2)c2cc(N3CCNCC3)c(F)cc2c1=O , value?
[out] 3.75 to 30 ng/mL

[in] Lab request: please report MIC under test system Moraxella catarrhalis for CO/N=C(\C(=O)N[C@@H]1C(=O)N2C(C(=O)O)=C(COC(N)=O)CS[C@H]12)c1ccco1
[out] 3.75 to 1000 ng/mL

[in] Reported MIC for Moraxella catarrhalis, given COc1c(N2C[C@@H]3CCCN[C@@H]3C2)c(F)cc2c(=O)c(C(=O)O)cn(C3CC3)c12 ?
[out] 3.75 to 120 ng/mL

[in] Which measured MIC belongs to CO/N=C1\CN(c2nc3c(cc2F)c(=O)c(C(=O)O)cn3C2CC2)CC1CN (racemic) , tested on Moraxella catarrhalis?
[out] 3.75 to 15 ng/mL

[in] Identify the measured MIC of NC1CCN(c2c(F)cc3c(=O)c(C(=O)O)cn(C4CC4)c3c2Cl)C1 (centres unmarked) for Moraxella catarrhalis.
[out] 3.75 to 15 ng/mL

====

MIC Range: recorded values
System: Escherichia coli
Method Description: MIC by NCCLS broth microdilution, 1100 Japanese clinical isolates 1997-1998
Type: cell-based
Test Settings: Escherichia coli ciprofloxacin susceptible (n=37)

Here are 3 compounds together with their reported answers.
[[record]]
compound = "CO/N=C1\\CN(c2nc3c(cc2F)c(=O)c(C(=O)O)cn3C2CC2)CC1CN (racemic)"
result = "≤8 to 125 ng/mL"

[[record]]
compound = "C[C@H]1COc2c(N3CCN(C)CC3)c(F)cc3c(=O)c(C(=O)O)cn1c23"
result = "≤8 to 250 ng/mL"

[[record]]
compound = "C[C@@H]1CN(c2c(F)c(N)c3c(=O)c(C(=O)O)cn(C4CC4)c3c2F)C[C@H](C)N1"
result = "≤8 to 250 ng/mL"


[in] Form field: reported MIC Range of NC1CCN(c2nc3c(cc2F)c(=O)c(C(=O)O)cn3-c2ccc(F)cc2F)C1 (centres unmarked)
[out] ≤8 to 250 ng/mL

[in] What MIC Range value was documented for this compound, N[C@@H]1[C@H]2CN(c3nc4c(cc3F)c(=O)c(C(=O)O)cn4-c3ccc(F)cc3F)C[C@@H]12 ?
[out] ≤8 to 250 ng/mL

====

System: Salmonella spp.
Method Description: MIC by agar dilution (NCCLS M7-A4), 288 enteropathogenic isolates, eight quinolones
Type: cell-based
Test Settings: Salmonella spp. (n = 106)
Catalogue of % Susceptible readings, one per entry.
Numbers only here, please. The scale is %.

[[record]]
compound = "CCn1cc(C(=O)O)c(=O)c2ccc(C)nc21"
quantity_kind = "% Susceptible"
quantitative_readout = 73

[[record]]
compound = "CC1COc2c(N3CCN(C)CC3)c(F)cc3c(=O)c(C(=O)O)cn1c23 (stereo not shown)"
quantity_kind = "% Susceptible"
quantitative_readout = 100

[[record]]
compound = "Cc1c(F)c(N2CCNC(C)C2)cc2c1c(=O)c(C(=O)O)cn2C1CC1 (stereo not shown)"
quantity_kind = "% Susceptible"
quantitative_readout = 99

[[record]]
compound = "CO/N=C1\\CN(c2nc3c(cc2F)c(=O)c(C(=O)O)cn3C2CC2)CC1CN (racemic)"
quantity_kind = "% Susceptible"
quantitative_readout = 100

[[record]]
compound = "N[C@@H]1[C@H]2CN(c3nc4c(cc3F)c(=O)c(C(=O)O)cn4-c3ccc(F)cc3F)C[C@@H]12"
quantity_kind = "% Susceptible"
quantitative_readout = 100

[[record]]
compound = "C[C@H]1COc2c(N3CCN(C)CC3)c(F)cc3c(=O)c(C(=O)O)cn1c23"
quantity_kind = "% Susceptible"
quantitative_readout = 100


[in] Query (compound): CCn1cc(C(=O)O)c(=O)c2cc(F)c(N3CCNCC3)cc21 ; field requested: % Susceptible
[out] 100

====

Test system: Gram positive anaerobic and facultative anaerobic pathogens
Method Description: microbe, parasite or virus in culture
Type: cell-based
Test Settings: Parvimonas micra
Quantity Kind: MIC (µg/mL)
Only the number, expressed in µg/mL, is required.

[[record]]
compound = "N[C@@H]1[C@H]2CN(c3nc4c(cc3F)c(=O)c(C(=O)O)cn4-c3ccc(F)cc3F)C[C@@H]12 [Trovafloxacin, trovafloxacin]"
unit_text = "µg/mL"
quantitative_readout = 0.06

[[record]]
compound = "C[C@@H]1CN(c2c(F)c(N)c3c(=O)c(C(=O)O)cn(C4CC4)c3c2F)C[C@H](C)N1 [Sparfloxacin, sparfloxacin]"
unit_text = "µg/mL"
quantitative_readout = 0.5

[[record]]
compound = "CO/N=C1\\CN(c2nc3c(cc2F)c(=O)c(C(=O)O)cn3C2CC2)CC1CN (racemic) [Gemifloxacin]"
unit_text = "µg/mL"
quantitative_readout = 0.125


Kindly consider the entry below.
[in] I would be grateful if you could share the reported MIC for C[C@@H](O)[C@H]1C(=O)N2C(C(=O)O)=C(SCCN=CN)C[C@H]12 [Imipenem] .
[out] 0.125

====

Tested on: Streptococcus pyogenes
Method Description: MIC by NCCLS broth microdilution, 1100 Japanese clinical isolates 1997-1998
Assay type: cell-based
Test Settings: Streptococcus pyogenes (n=51)
Quantity Kind: MIC Range

[[record]]
compound = "C[C@H]1COc2c(N3CCN(C)CC3)c(F)cc3c(=O)c(C(=O)O)cn1c23"
result = "0.5 to 2 µg/mL"


[in] Quick one: MIC Range of N[C@@H]1[C@H]2CN(c3nc4c(cc3F)c(=O)c(C(=O)O)cn4-c3ccc(F)cc3F)C[C@@H]12 ?
[out] 0.063 to 0.5 µg/mL

[in] Entry under review: CO/N=C1\CN(c2nc3c(cc2F)c(=O)c(C(=O)O)cn3C2CC2)CC1CN (racemic) . Reported MIC Range?
[out] 0.016 to 0.125 µg/mL

[in] Reported MIC Range, compound C[C@@H]1CN(c2c(F)c(N)c3c(=O)c(C(=O)O)cn(C4CC4)c3c2F)C[C@H](C)N1 : ____
[out] 0.25 to 1 µg/mL

[in] Return reported MIC Range; argument: NC1CCN(c2nc3c(cc2F)c(=O)c(C(=O)O)cn3-c2ccc(F)cc2F)C1 (centres unmarked)
[out] 0.063 to 1 µg/mL
